Measured cell viability, listed per entry.
test system: OCI-AML2; test: cell viability relative to vehicle control; higher = less cytotoxic; conditions: 10 µM; SRSF2 genotype: P95H/wt;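 further: after 48 h exposure read by CellTiter-Glo luminescence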
Structures can show the parent of a compound that is named as a salt.
All answers are understood in %, so give the number only.

molecule	readingUnit	cell viability
COCCOc1nc(-c2ccc(Cl)c(Cl)c2)n(-c2ccc(NC(=O)CCl)cc2)n1	%	0.42
C[n+]1c2ccccc2nc2ccccc21 [Phenazine methosulfate]	%	2.71
CO/N=C(\C(=O)N[C@@H]1C(=O)N2C(C(=O)O)=C(Cn3ccc(=N)n3CCO)CS[C@H]12)c1csc(N)n1 [Cefoselis sulfate]	%	103
CN(C)CCOc1ccc(-c2nc(-c3ccncc3)c(-c3ccc4c(c3)CC/C4=N\O)[nH]2)cc1	%	6.47
CCCCc1nc(C)c(CC(=S)N(C)C)c(=O)n1Cc1ccc(-c2ccccc2-c2nnn[nH]2)cc1	%	106

Give cell viability for the following molecule: O=C(O)Cc1ccccc1Nc1c(Cl)cccc1Cl [Diclofenac Diethylamine]
105

Give cell viability for the following molecule: CCCc1nc(C)c2c(=O)[nH]c(-c3cc(S(=O)(=O)N4CCN(CC)CC4)ccc3OCC)nn12 [Vardenafil Hydrochloride Trihydrate (Vivanza]
135

# return recorded cell viability for input CCn1c(=O)c(-c2cc[nH]n2)cc2c(C)nc(N)nc21
13.8

Supply reported cell viability belonging to this molecule: COc1cccc(C=NCCN=Cc2cccc(OC)c2[O-])c1[O-].[Cl-].[Mn+3]
89.2

Quote cell viability reported for CCCCC1=NC2(CCCC2)C(=O)N1Cc1ccc(-c2ccccc2-c2nnn[nH]2)cc1 please.
95.7

Output measured cell viability for this item: COCCc1ccc(OCC(O)CNC(C)C)cc1 (configuration not stated) [Metoprolol tartrate]
106

Hello, please tell me recorded cell viability for this one: O=S(=O)(NC1CCCCC1)c1ccc2c(c1)C(=NO)c1cc(S(=O)(=O)NC3CCCCC3)ccc1-2
0.52

Given CCCC(C)NC(=O)c1ccc(Cl)c(Cl)c1 (configuration not stated) , respond with its cell viability.
96

Look up and state reported cell viability for Cc1cc(NS(=O)(=O)c2ccc(N)cc2)nc(C)n1
112

Respond only with cell viability recorded for CCCOc1ccc2c(c1)CC[C@@H]1[C@@H]2CC[C@]2(C)[C@@H](OC)CC[C@@H]12
59.6

Identify the reported cell viability for the following entry. O=C1CN(/N=C/c2ccc(-c3ccc([N+](=O)[O-])cc3)o2)C(=O)N1 [Dantrolene sodium hemiheptahydrate]
100

Respond only with cell viability recorded for CSc1cccc(Nc2ncc3cc(-c4c(Cl)cccc4Cl)c(=O)n(C)c3n2)c1
12.8
